assay.protocol: Restrictive medium S. cerevisiae growth inhibition, OD615, pilot screen of yeast lifespan reduction project, restrictive growth control (AID 706);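 also: modified DeaD lifespan yeast strain shifted to restrictive glucose medium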
protocol.conditions: OD615, 48 h, at 10 µM, hits give high values
Reported growth inhibition values are given for each entry in this list.
Hi! Could you send only the number? It should be in %, unit omitted.

Consider the following illustrative entries.
> print(dat)
                                   compound  observed.result
1  COc1ccccc1NC(=O)C1=C(C)NC(=O)NC1c1ccccc1F (centres undefined)            -13.5
2          Cc1cc(Nc2c(C)cccc2C)n2nc(C)nc2n1             7.11
3  COc1ccccc1CC(=O)N1CCN(c2cccc(C(F)(F)F)c2)CC1             5.32
4       CC(C)NS(=O)(=O)c1ccc2c(c1)oc(=O)n2C              2.4
5  CCC(C)(C(=O)NC1CCCCC1)N(Cc1ccco1)C(=O)CNC(=O)c1ccccc1 (centres undefined)            -12.2
6  CCOC(=O)N1CCN(C(=O)c2cn(-c3ccc(C)c(C)c3)c(=O)c3ccccc23)CC1            -0.85

growth inhibition measured on "O=C(CCCCn1c(=O)[nH]c2ccccc2c1=O)NC1CCN(Cc2ccccc2)CC1" = -22.8

compound O=C(Nc1ccccc1)OCC1CCCN2CCCCC12 (centres undefined) , growth inhibition observed: -13.1

growth inhibition measured on "CC(C)Sc1oc(-c2ccco2)nc1S(=O)(=O)c1ccc(F)cc1" = -0.07

growth inhibition reading for "CSC1=NCCN1C(=O)c1ccco1" : -4.79

Record "CCOC(=O)Cn1c(=O)oc2cc(S(=O)(=O)N3CCc4ccccc43)ccc21" . Reported growth inhibition: 1.04

For O=C1c2ccccc2C(O)N1CCN1CCOCC1 (centres undefined) the compound record lists growth inhibition as -6.41

Quick note, growth inhibition for "c1ccc(CNn2c(N3CCOCC3)nc3ccccc32)cc1" landed at -10.9

Query "Cc1cccc(CSc2nnc(-c3ccccn3)n2N)c1" yields growth inhibition of 14.2

====

assay.protocol: growth suppression of beta-catenin knockout HCT116, pilot screen, human colon tumor cells (AID 823);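 also: 0% = wells killed by 20 µM Hyamine and 100% = untreated DMSO cell wells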
protocol.conditions: CellTiter-Glo, 60 h, at 10 µM, hits give low values
Results filed as inconclusive are left out.
Attribute: viability
Answer in %, number only, no unit symbol.

Past entries and their recorded results:
> print(dat)
                                   compound  assay.readout  units.of.measure  observed.result
1             COC(=O)c1c(-c2ccc(C)cc2)csc1N      viability                 %             75.8
2  CCC(C)NC(=O)CS(=O)Cc1nc(-c2cccc(OC)c2)oc1C (stereo unspecified)      viability                 %               98
3  CCOc1ccc(NC(=O)N(CCN(C)C)C(C)c2ccncc2)cc1 (stereo unspecified)      viability                 %             85.6

"CCOC(=O)N1CCN(CC(=O)Nc2cc3c(cc2C(C)=O)OCO3)CC1" has a reported viability of 94.2

Entry under test: "COCC(=O)Nc1cc(=O)n(C)c(=O)n1C" . Its viability was 100

Summary for this compound, CCOC(=O)C1CCCN(C(=O)c2cn(CC(C)C)c(=O)c3cc(OC)c(OC)cc23)C1 (stereo unspecified) : viability is 97

Record COc1cc2c(c(O)c1OC)C(=O)C(OC)CCC2 (stereo unspecified) , field viability: 97

Value of viability reported for the compound CCCC1(C(=O)O)NC(c2cccc(OC)c2O)C2C(=O)N(c3ccccc3)C(=O)C21 (stereo unspecified) is 96.4

# viability of COc1ccc(C2C(C(=O)Nc3cc(C)on3)c3ccccc3C(=O)N2C)cc1 (stereo unspecified) = 101

CCCN1C(=O)c2cc(C(=O)NCCc3cccc(C)c3)ccc2C1O (stereo unspecified) has a reported viability of 104

Lab note: "CCCCCn1c(=O)[nH]c2cc(C(=O)O)ccc2c1=O" gave viability of 102

// field: viability; key: "Cc1ccccc1N1C(=O)C(Cl)=C(N2CCN(c3ccccc3)CC2)C1=O" ; value = 101

The value of viability measured for the compound "O=C(Cc1ccccc1)NCCn1ccc2ccccc21" turned out to be 94.6

====

Quick list: viability increase per entry.
assay.protocol: viability gain of MRP-1-high H69AR cells under doxorubicin, pilot screen, MRP-1 activator project, CellTiter-Glo, duplicate (AID 807);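 also: compound pretreatment 18-22 h then 72 h combined with doxorubicin; 0% = doxorubicin alone and 100% = vehicle without doxorubicin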
protocol.conditions: H69AR viability with doxorubicin, CellTiter-Glo luminescence; at 10 µM; hits give high values
Enter your answer as a number in %; do not include the unit.

Solved cases (5 shown):
> print(dat)
                                   molecule  units.of.measure  observed.result
1      O=C(Cn1nnc(-c2ccccc2F)n1)NCCc1ccccc1                 %            -0.89
2                     CSc1cc(/C=N/O)c(SC)s1                 %             -3.3
3  CCSCCOC(=O)C1=C(C)NC(=O)NC1c1cc(OC)ccc1OC (stereo unspecified)                 %            -1.14
4   CN(C)c1nc(Oc2ccc(/C=N/O)cc2)nc(N(C)C)n1                 %            -2.72
5  CNC(=O)C1CC(=O)N(c2ccc(C)cc2)C1 (stereo unspecified)                 %             0.85

Please find the next molecule below.
The molecule identified as CCc1ccc(C2CC(=O)NC(SCC(=O)OC(C)C)=C2C#N)cc1 (stereo unspecified) registered its viability increase at 0.08

====

assay.protocol: viability gain of MRP-1-high H69AR cells under doxorubicin, pilot screen, MRP-1 activator project, CellTiter-Glo, duplicate (AID 807);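 also: compound pretreatment 18-22 h then 72 h combined with doxorubicin; 0% = doxorubicin alone and 100% = vehicle without doxorubicin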
protocol.conditions: H69AR viability with doxorubicin, CellTiter-Glo luminescence; at 10 µM; hits give high values
Documented viability increase across a set of molecules
Just the number please, in %, no unit attached.

> print(dat)
                                   molecule  observed.result
1  Cc1cnc(C(=O)OCC(=O)Nc2cc(Cl)cc(Cl)c2)cn1            -5.97

Value of measured viability increase for the entry "COc1ccc2cc(CCNC(=O)C3CCCC3)c(=O)[nH]c2c1" : -0.27

# molecule "S=c1nc(-c2ccccc2)n(CCCn2ccnc2)c2c1CCCC2" ; its viability increase = 0.85

====

assay.protocol: growth suppression of beta-catenin knockout HCT116, pilot screen, human colon tumor cells (AID 823);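 also: 0% = wells killed by 20 µM Hyamine and 100% = untreated DMSO cell wells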
protocol.conditions: CellTiter-Glo, 60 h, at 10 µM, hits give low values
Results filed as inconclusive are left out.
Criterion: viability strictly under 90%. Met: true. Not met: false.

Solved cases below.
> print(dat)
                                   compound  group
1      C=CCC(=O)OCC(=O)Nc1ccc(Oc2ccccc2)cc1  false
2  CCN1CCN(Cc2ccc(NC(=O)CC3Oc4ccc(C)cc4NC3=O)cc2)CC1 (stereo unspecified)  false
3               CN(C)c1cc(-c2ccccc2)nc(N)n1   true
4     CN(c1ccc(C(=O)O)cc1)S(=O)(=O)c1ccccc1  false
5  Cc1cc(C)n(C(CC(=O)N2CCc3ccccc3C2)C(=O)O)n1 (stereo unspecified)  false
6  Cn1c(=O)oc2cc(S(=O)(=O)N3CCC(C(=O)N4CCN(c5ccccc5)CC4)CC3)ccc21  false
7    O=C(Nc1ccc2oc(-c3ccccc3)nc2c1)c1ccncc1   true
8  O=C(Nc1ccc2nc3n(c(=O)c2c1)CCCCC3)c1ccccn1  false

Query: Criterion: viability strictly below 90%. Is it met by "O=C(CN(Cc1ccc(F)cc1)S(=O)(=O)c1ccccc1)N1CCCCC1" ?
Reply: false

Query: Is 90% strictly greater than the compound's reported viability? compound: Cc1ccc(-c2nc(CS(=O)CC(=O)NCc3ccccc3)c(C)o2)cc1 (stereo unspecified)
Reply: false

Query: Does this compound meet the criterion viability < 90%? CCOc1ccc(C(C)NC(=O)CCC(=O)O)cc1 (stereo unspecified)
Reply: false

====

assay.protocol: growth suppression of PTEN-deleted HCT116, pilot screen, cell-based, HCT116 clonal line, CellTiter-Glo (AID 824);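 also: 0% = 20 µM Hyamine control and 100% = vehicle cell control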
protocol.conditions: 60 h, at 10 µM, hits give low values
Inconclusive results are not listed.
viability values for the compounds below.
// units = %; emit number, no label

Sample answers from the record:
> print(dat)
                                   compound  units.of.measure  observed.result
1  CC(=O)N1CCc2c(sc(NC(=O)CN3C(=O)CCC3=O)c2C(N)=O)C1                 %             99.3
2  CC1Cc2ccccc2N1C(=O)CSC1=NCCS1 (stereo not drawn)                 %             95.2

// sample "CCc1ccccc1NC(=O)c1cc(C2CC2)on1" , its viability was 91.8

Just so you know, measured viability for "O=c1cc(N2CCOCC2)[nH]c(=O)n1-c1ccc(Cl)cc1" came out at 97.2

"O=C1c2ccccc2-c2ncnc3c(N4CCOCC4)cc(N4CCOCC4)c1c23" has a reported viability of 80.9

The compound identified as COc1ccc(OC)c(C2CC(=O)N3CN(c4ccccc4)CSC3=C2C#N)c1 (stereo not drawn) registered its viability at 94.5

Note to self: viability recorded for COc1ccc2nc(N3CCCC(C(=O)NCCCN4CCN(C)CC4)C3)sc2c1 (stereo not drawn) was 89.5
